Hey, just so you know, these numbers are from BindingDB's records for doi:10.1021/jm00092a019.

# study_system: P2Y purinoceptor 12 (Homo sapiens)
# Sequence (Q9H244 whole entry): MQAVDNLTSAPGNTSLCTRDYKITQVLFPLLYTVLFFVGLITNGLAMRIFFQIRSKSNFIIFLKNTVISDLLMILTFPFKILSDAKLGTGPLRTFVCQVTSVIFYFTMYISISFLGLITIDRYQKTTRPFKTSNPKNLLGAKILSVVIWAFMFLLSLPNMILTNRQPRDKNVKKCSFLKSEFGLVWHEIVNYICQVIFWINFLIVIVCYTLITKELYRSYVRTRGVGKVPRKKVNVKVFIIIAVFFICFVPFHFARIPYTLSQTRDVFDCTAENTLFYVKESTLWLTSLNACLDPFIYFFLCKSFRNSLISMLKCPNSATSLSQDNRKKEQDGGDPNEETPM
# test_details: Inhibition of platelet aggregation using adenosine diphosphate (ADP) as activating agent in human platelet rich plasma (PRP)
quantity: EC50 (nM)
Form entry: value (nM) — number only.

[ask] Dear colleague, please send me the reported EC50 for O=C(CCCOc1ccc2nc3[nH]c(=O)[nH]c3cc2c1)N1CCCCC1 when you can.
[reply] 130

###

# test_details: Inhibition of platelet aggregation using adenosine diphosphate (ADP) as activating agent in human platelet rich plasma (PRP)
Exercise: for every item that follows, state its recorded EC50.
Form entry: value (nM) — number only.

[ask] Dear colleague, please send me the reported EC50 for O=c1[nH]c2cc3cc(OCCCCS(=O)(=O)c4ccccc4)ccc3nc2[nH]1 when you can.
[reply] 10

[ask] Dear colleague, please send me the reported EC50 for CCOC(=O)CCCOc1ccc2nc3[nH]c(=O)[nH]c3cc2c1 when you can.
[reply] 38

[ask] Dear colleague, please send me the reported EC50 for N#CCCCOc1ccc2nc3[nH]c(=O)[nH]c3cc2c1 when you can.
[reply] 600
